Where these numbers come from: patent US6107313A

Assignment: determine reported activity at 0.03 µM for the given compounds.
experimentalSystem: Dopamine, D2s (Human Recombinant) (Homo sapiens)
Construct: expressed in transfected cells; host or cells: A9L cells (membranes)
Sequence (P14416 1-414 isoform P14416-2): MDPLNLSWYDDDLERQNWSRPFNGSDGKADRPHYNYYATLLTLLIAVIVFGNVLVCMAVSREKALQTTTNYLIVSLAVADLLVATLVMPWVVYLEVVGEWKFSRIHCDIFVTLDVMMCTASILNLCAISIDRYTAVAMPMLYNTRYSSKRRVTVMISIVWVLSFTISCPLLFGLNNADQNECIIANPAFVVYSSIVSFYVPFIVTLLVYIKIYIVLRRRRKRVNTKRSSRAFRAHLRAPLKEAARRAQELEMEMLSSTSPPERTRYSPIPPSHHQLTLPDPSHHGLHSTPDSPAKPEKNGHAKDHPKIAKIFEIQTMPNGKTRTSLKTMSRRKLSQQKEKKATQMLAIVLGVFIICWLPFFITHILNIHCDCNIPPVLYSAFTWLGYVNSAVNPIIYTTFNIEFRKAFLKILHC
experiment: dopamine D2 receptor binding assay, [3H]spiperone, human recombinant (A9L cells)
condition: 1 h, concentration 3.0E-8, average, N = 2, read-out: % Specific Binding
Number only, in %; omit the unit.

Request: Please look up its activity at 0.03 µM: `Clc1ccc(CN2CCC(c3nc(-c4cccs4)no3)CC2)cc1`
Result: 104

Request: Please look up its activity at 0.03 µM: `Cc1ccc(-c2noc(C3CCN(Cc4ccc(Cl)c(Cl)c4)CC3)n2)cc1`
Result: 107

Request: Please look up its activity at 0.03 µM: `COc1ccc(CN2CCC(c3nc(-c4ccccc4C)no3)CC2)cc1`
Result: 99.8

Request: Please look up its activity at 0.03 µM: `Clc1cccc(CN2CCC(c3nc(-c4cccs4)no3)CC2)c1`
Result: 84.9

---

Assignment: determine reported activity at 0.003 µM for the given compounds.
experimentalSystem: Dopamine, D4.4 (Human Recombinant) (Homo sapiens, UniProt P21917)
Construct: expressed in transfected cells; host or cells: CHO cells (membranes)
Sequence (P21917 whole entry): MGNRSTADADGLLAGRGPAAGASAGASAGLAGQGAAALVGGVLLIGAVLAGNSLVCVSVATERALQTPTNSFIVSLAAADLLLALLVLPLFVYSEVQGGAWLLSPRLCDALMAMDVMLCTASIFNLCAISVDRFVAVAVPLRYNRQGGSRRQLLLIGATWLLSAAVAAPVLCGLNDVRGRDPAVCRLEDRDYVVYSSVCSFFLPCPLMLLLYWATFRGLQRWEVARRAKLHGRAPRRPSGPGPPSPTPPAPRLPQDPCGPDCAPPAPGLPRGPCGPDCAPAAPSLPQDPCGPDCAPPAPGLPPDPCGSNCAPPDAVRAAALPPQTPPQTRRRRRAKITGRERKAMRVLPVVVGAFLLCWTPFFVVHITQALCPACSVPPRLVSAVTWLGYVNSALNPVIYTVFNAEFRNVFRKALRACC
experiment: dopamine D4.4 receptor binding assay, [3H]spiperone, human recombinant (CHO cells)
condition: 1 h, concentration 3.0E-9, average, N = 2, read-out: % Specific Binding
Experimental: [The source words this procedure for another target and reports this target under the same test.] Following incubation, the membranes were rapidly filtered under vacuum through GF/B glass fiber filters (Packard). The filters were then washed several times with an ice-cold buffer using a Packard cell harvester. Bound radioactivity was measured with a scintillation counter (Topcount, Packard) using a liquid scintillation cocktail (Microscint 0, Packard). […] Results are expressed as a percent of control specific binding obtained in the presence of the test compounds. […]
Number only, in %; omit the unit.

Request: Please look up its activity at 0.003 µM: `Clc1cccc(CN2CCC(c3nc(-c4cccs4)no3)CC2)c1`
Result: 95.2

Request: Please look up its activity at 0.003 µM: `Cc1ccc(-c2noc(C3CCN(Cc4ccc(Cl)c(Cl)c4)CC3)n2)cc1`
Result: 84.4

Request: Please look up its activity at 0.003 µM: `Clc1ccc(CN2CCC(c3nc(-c4cccs4)no3)CC2)cc1`
Result: 73.1

Request: Please look up its activity at 0.003 µM: `COc1ccc(CN2CCC(c3nc(-c4ccccc4C)no3)CC2)cc1`
Result: 96.4

---

experimentalSystem: Dopamine, D2s (Human Recombinant) (Homo sapiens)
Construct: expressed in transfected cells; host or cells: A9L cells (membranes)
experiment: dopamine D2 receptor binding assay, [3H]spiperone, human recombinant (A9L cells)
condition: 1 h, concentration 1.0E-6, average, N = 2, read-out: % Specific Binding
Assignment: determine reported activity at 1 µM for the given compounds.
Number only, in %; omit the unit.

Request: Please look up its activity at 1 µM: `Cc1ccc(-c2noc(C3CCN(Cc4ccc(Cl)c(Cl)c4)CC3)n2)cc1`
Result: 102

Request: Please look up its activity at 1 µM: `COc1ccc(CN2CCC(c3nc(-c4ccccc4C)no3)CC2)cc1`
Result: 106

Request: Please look up its activity at 1 µM: `Clc1ccc(CN2CCC(c3nc(-c4cccs4)no3)CC2)cc1`
Result: 91.3

Request: Please look up its activity at 1 µM: `Clc1cccc(CN2CCC(c3nc(-c4cccs4)no3)CC2)c1`
Result: 101
